Recorded Neutralizing activity IC50, one value per entry.
- Target Under Test: T1, human [1-305]-mouse chimeric EL (human; mouse, UniProt Q9WVG5 306-500)
- T1 sequence: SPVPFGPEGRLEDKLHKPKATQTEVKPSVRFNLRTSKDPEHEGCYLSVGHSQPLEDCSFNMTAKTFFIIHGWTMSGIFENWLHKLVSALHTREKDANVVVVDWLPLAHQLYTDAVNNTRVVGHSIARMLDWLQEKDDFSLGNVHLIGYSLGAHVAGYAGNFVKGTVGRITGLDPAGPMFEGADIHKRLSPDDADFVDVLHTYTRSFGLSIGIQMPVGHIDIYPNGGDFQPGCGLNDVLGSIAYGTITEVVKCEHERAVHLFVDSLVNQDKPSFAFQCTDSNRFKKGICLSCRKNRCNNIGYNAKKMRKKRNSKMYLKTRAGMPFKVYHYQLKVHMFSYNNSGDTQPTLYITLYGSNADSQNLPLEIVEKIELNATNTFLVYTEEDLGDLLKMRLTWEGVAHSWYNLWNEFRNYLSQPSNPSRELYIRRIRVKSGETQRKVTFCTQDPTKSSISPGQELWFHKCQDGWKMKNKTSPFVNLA
- Test Method Notes: cell-based or functional assay
Entry rule: numbers only, all in nM.

[[record]]
binder = "h16B3-S2 (antibody, V domains shown, humanized) VH: EVQLVESGGGLVQPGGSLRLSCAASGFTFSGYTMSWVRQAPGKGLEWVSEISFARDRAFYPDTVKGRFTISRDNSKNTLYLQMNSLRAEDTAVYYCARLGGRNHDYWYFDVWGQGTTVTVSS VL: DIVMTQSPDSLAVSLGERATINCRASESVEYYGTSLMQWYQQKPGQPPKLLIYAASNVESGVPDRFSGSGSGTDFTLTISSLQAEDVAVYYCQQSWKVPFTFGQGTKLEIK"
observed_property = "Neutralizing activity IC50"
val = 5.3

[[record]]
binder = "h16B3-S1 (antibody, V domains shown) VH: EVQLVESGGGLVQPGGSLRLSCAASGFTFSGYTMSWVRQAPGKGLEWVSEISFARDRAFYPDTVKGRFTISRDNSKNTLYLQMNSLRAEDTAVYYCAKLGGRNHDYWYFDVWGQGTTVTVSS VL: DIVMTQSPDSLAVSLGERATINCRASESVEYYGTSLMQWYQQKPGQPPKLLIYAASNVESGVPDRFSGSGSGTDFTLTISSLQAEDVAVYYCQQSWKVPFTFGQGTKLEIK"
observed_property = "Neutralizing activity IC50"
val = 2.7

[[record]]
binder = "h16B3-S5 (antibody, V domains shown, humanized) VH: EVQLVESGGGLVQPGGSLRLSCAASGFTFSGYTMSWVRQAPGKGLEWVSEISFARDRAFYPDTVKGRFTISRDNSKNTLYLQMNSLRAEDTAVYYCARLGGKNRDFWYFDLWGQGTTVTVSS VL: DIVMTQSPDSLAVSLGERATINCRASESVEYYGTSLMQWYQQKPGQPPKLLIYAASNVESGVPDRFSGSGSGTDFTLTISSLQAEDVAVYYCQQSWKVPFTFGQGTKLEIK"
observed_property = "Neutralizing activity IC50"
val = 1.2

[[record]]
binder = "16B3 (antibody, mouse IgG2a, V domains shown, mouse IgG2a from hybridoma; also called 16B3 (mouse mAb)) VH: DVKLVESGGGLVQPGGSLKLSCTASGFTFSGYTMSWVRQTPEKRLELVAEISFARDRAFYPDTVKGRFTISRDNAKNTLYLQMSSLKSEDTAMYYCTRLGGRNHDYWYFDVWGTGTTVTVSS VL: DIVLTQSPTSLAVSPGQRATISCRASESVEYYGTSLMQWYQQKPGQRPQLLIYAASNVESGVPARFSGSGSGTDFSLNIHPVEEDDIAVYFCQQSWKVPFTFGSGTKLEIK"
observed_property = "Neutralizing activity IC50"
val = 1.3

[[record]]
binder = "23H8 (antibody, mouse IgG2a, V domains shown, mouse IgG2a from hybridoma; also called 23H8 (mouse mAb)) VH: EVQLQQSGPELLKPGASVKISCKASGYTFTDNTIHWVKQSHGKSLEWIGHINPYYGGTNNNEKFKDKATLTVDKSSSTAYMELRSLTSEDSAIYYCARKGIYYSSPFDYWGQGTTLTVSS VL: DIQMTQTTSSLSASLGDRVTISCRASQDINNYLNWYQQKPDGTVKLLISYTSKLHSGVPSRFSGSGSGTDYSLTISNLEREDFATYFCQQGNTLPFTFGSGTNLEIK"
observed_property = "Neutralizing activity IC50"
val = 1.7


Give its Neutralizing activity IC50 value. Item: h53A11-S1 (antibody, V domains shown) VH: QVQLVQSGAEVKKPGASVKVSCKASGYTFTDYTMHWVRQAPGQRLEWMGGINPYYGGTTYNEKFKDRVTITRDTSASTAYMELSSLRSEDTAVYYCAKGDYYGGSYNYWGQGTTVTVSS VL: EIVMTQSLATLSVSPGERATLSCRASQDISNSLHWYQQKPGQAPRLLIKYASQSISGIPARFSGSGSGTEFTLTISSLQSEDFAVYYCQQSNSWPYTFGQGTKLEIK
2.1

Tell me the measured Neutralizing activity IC50 of h23H8-S2 (antibody, V domains shown) VH: QVQLVQSGAEVKKPGASVKVSCKASGYTFTDNTIHWVRQAPGQGLEWMGHINPYYGGTNNNEKFKDRVTMTRDTSISTAYMELSRLRSDDTAVYYCARKGIYYSSPFDYWGQGTTVTVSS VL: DIQMTQSPSSLSASVGDRVTITCRASQDINNYLNWYQQKPGKAPKLLISYTSKLHSGVPSRFSGSGSGTDFTLTISSLQREDFATYYCQQGNTLPFTFGQGTKLEIK , please.
1.7

Consider the binder shown here: h16B3-F2 (antibody, V domains shown, humanized) VH: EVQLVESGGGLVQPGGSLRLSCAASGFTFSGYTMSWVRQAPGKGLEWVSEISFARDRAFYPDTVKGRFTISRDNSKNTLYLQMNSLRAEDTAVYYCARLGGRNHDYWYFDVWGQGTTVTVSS VL: EIVMTQSPATLSVSPGERATLSCRASESVEYYGTSLMQWYQQKPGQAPRLLIYAASNVESGIPARFSGSGSGTEFTLTISSLQSEDFAVYYCQQSWKVPFTFGQGTKLEIK What is its recorded Neutralizing activity IC50?
2.4

Entry h16B3-F3 (antibody, V domains shown, humanized) VH: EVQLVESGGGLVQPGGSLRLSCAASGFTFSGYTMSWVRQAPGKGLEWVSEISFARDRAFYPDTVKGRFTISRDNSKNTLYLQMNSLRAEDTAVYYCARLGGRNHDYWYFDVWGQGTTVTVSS VL: EIVLTQSPGTLSLSPGERATLSCRASESVEYYGTSLMQWYQQKPGQAPRLLIYAASNVESGIPDRFSGSGSGTDFTLTISRLEPEDFAVYYCQQSWKVPFTFGQGTKLEIK has what Neutralizing activity IC50?
2

Record request: Neutralizing activity IC50 value, item h23H8-S3 (antibody, V domains shown) VH: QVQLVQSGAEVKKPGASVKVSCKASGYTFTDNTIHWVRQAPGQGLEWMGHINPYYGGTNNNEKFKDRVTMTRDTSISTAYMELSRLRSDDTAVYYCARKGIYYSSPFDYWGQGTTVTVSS VL: DIQMTQSPSSLSASVGDRVTITCRASQDINNYLNWYQQKPGKAPKLLISYTSKLHSGVPSRFSGSGSGTDFTLTISSLQPEDFATYYCQQGNTLPFTFGQGTKLEIK
2
